target: T1, human BACE1 (R&D Systems) (human, UniProt P56817); assay: SPR (Biacore)
T1 construct: recombinant, commercial (R&D Systems)
T1 sequence (P56817 22-457 limits assumed): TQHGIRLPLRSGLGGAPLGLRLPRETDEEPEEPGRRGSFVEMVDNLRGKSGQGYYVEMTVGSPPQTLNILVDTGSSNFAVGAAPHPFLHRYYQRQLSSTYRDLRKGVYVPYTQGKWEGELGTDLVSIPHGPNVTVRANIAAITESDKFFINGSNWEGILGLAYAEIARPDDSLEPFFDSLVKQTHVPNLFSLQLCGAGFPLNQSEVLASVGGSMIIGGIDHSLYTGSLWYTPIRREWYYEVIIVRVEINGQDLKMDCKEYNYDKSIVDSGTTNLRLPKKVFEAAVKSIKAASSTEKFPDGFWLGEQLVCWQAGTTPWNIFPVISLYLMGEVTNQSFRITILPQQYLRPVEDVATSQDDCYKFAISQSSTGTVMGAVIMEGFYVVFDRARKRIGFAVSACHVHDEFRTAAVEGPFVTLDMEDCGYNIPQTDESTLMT
VALUE_TYPE: log10 of Kd (log10 of the value in nM)
Recorded Kd (log10, nM)

Measured log10 of Kd, 5260 (antibody, V domains shown, anti-BACE1 IgG) VH: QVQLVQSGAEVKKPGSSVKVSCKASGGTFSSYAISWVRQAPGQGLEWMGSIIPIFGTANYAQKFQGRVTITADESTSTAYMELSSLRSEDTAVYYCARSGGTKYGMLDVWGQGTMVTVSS VL: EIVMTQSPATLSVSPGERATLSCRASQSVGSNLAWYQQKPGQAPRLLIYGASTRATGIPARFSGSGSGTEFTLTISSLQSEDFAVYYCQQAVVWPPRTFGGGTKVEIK : 1.16

Entry under test: 5881 (antibody, V domains shown, anti-BACE1 IgG) VH: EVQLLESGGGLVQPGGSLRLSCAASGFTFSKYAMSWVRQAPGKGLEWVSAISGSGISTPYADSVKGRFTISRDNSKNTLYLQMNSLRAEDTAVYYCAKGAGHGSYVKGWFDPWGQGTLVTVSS VL: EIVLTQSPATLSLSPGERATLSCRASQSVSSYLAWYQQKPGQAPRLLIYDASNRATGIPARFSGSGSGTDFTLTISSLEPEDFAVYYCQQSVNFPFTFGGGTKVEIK . Its log10 of Kd was 0.90

Consider 5876 (antibody, V domains shown, anti-BACE1 IgG) VH: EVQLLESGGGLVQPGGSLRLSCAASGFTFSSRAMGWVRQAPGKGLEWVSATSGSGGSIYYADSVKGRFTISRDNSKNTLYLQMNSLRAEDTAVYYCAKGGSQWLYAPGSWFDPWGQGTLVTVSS VL: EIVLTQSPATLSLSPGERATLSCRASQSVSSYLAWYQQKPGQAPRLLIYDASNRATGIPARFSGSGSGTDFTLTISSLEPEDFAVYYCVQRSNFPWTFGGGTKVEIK . Its measured log10 of Kd is -0.14

The binder 5875 (antibody, V domains shown, anti-BACE1 IgG) VH: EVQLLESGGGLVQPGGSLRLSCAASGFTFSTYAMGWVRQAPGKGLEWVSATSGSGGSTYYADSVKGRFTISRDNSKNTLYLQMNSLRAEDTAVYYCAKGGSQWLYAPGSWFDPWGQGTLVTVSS VL: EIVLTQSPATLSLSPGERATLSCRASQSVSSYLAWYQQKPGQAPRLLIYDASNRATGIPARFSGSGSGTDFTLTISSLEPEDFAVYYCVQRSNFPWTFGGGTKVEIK showed log10 of Kd equal to 0.29

Item: 5878 (antibody, V domains shown, anti-BACE1 IgG) VH: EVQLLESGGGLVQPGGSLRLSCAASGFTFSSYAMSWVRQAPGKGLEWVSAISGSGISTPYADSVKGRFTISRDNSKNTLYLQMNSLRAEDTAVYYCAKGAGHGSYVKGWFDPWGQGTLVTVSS VL: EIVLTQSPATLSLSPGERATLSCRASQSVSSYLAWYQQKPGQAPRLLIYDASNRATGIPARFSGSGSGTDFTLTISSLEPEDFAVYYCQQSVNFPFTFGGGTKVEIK | log10 of Kd: 1.56

In plain terms, 5880 (antibody, V domains shown, anti-BACE1 IgG) VH: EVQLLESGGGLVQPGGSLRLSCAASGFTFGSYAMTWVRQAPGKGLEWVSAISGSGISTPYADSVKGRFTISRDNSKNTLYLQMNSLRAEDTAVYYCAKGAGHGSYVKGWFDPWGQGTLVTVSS VL: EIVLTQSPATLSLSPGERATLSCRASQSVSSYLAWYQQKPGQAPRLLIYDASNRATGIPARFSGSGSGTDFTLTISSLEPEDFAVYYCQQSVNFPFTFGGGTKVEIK has a documented log10 of Kd of 1.82

Sample 5884 (antibody, V domains shown, anti-BACE1 IgG) VH: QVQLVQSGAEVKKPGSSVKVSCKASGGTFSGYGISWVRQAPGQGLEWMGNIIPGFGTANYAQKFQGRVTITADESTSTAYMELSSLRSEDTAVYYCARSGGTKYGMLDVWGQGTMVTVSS VL: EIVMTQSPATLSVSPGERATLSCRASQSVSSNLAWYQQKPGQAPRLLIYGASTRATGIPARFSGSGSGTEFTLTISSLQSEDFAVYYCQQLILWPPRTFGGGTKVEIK ; log10 of Kd observed: 0.42

The recorded log10 of Kd for 5572 (antibody, V domains shown, anti-BACE1 IgG) VH: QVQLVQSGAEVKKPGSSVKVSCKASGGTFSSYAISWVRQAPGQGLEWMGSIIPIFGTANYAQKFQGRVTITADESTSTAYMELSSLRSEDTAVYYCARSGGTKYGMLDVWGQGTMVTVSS VL: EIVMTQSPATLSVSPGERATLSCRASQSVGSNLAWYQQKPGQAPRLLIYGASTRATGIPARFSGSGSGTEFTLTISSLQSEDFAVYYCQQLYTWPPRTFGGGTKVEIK is 0.45

Sure, the documented log10 of Kd for 5883 (antibody, V domains shown, anti-BACE1 IgG) VH: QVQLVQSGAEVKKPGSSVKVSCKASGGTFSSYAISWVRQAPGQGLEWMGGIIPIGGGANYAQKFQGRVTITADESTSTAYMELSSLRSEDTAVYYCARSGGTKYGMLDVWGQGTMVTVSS VL: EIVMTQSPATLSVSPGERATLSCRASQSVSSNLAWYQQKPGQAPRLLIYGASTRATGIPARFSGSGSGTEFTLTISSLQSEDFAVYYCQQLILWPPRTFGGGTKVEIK is 0.78

Entry 5887 (antibody, V domains shown, anti-BACE1 IgG) VH: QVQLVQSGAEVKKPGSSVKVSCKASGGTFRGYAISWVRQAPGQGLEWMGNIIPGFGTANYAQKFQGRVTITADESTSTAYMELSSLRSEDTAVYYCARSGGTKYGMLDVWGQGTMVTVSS VL: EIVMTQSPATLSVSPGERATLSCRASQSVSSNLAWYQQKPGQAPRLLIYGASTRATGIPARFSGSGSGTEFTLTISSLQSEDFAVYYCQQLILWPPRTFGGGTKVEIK ; log10 of Kd = 0.55
